test: Observed AUCinfinity in Sprague-Dawley rat at 25 mg/kg, po measured for 96 hrs by LC-MS analysis; assay type: ADME, organism-based; design: dose 25 mg/kg, time 96 hrs, route po; conditions: in vivo
quantity name: AUC(0-inf) (ng·h/mL)
I only need the number, in ng·h/mL, no unit after it.

Fill in the blank: the reported AUC(0-inf) of COc1cc2c(Oc3ccc(Nc4nn(C)cc4C(=O)NC4CCCCC4)cc3F)ccnc2cc1OCCCN1CCOCC1 is ____.
8630

###

target: Receptor-type tyrosine-protein kinase FLT3 (Homo sapiens); experiment: Binding affinity to FLT3 (unknown origin) assessed as dissociation constant by competition binding assay
Sequence (P36888 whole entry): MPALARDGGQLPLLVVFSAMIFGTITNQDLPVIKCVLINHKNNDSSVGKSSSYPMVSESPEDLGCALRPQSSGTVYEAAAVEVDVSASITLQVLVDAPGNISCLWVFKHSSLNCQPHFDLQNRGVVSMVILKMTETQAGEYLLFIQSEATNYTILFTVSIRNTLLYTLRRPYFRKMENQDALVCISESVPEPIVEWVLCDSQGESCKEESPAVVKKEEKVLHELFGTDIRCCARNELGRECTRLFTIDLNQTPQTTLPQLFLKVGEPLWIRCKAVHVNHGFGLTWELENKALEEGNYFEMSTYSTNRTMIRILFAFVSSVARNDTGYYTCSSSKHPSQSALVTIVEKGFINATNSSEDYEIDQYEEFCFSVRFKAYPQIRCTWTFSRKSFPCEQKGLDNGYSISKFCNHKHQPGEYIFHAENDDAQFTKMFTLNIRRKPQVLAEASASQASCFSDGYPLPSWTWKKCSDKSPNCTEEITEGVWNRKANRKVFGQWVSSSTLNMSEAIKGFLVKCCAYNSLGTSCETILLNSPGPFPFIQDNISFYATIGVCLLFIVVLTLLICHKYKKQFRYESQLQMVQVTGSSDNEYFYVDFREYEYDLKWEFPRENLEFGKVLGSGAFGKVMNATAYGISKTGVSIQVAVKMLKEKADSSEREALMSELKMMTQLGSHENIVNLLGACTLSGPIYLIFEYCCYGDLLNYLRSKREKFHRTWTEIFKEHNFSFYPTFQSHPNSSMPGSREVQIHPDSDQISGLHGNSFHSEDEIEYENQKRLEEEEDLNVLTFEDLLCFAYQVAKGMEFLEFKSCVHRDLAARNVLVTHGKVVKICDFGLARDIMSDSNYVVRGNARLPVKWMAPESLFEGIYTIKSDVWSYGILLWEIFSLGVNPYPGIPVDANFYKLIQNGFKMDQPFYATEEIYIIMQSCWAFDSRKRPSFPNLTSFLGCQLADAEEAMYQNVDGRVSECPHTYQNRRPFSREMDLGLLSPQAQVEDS
quantity name: Kd (nM)
I only need the number, in nM, no unit after it.

Fill in the blank: the reported Kd of COc1cc2c(Oc3ccc(Nc4nn(C)cc4C(=O)NC4CCCCC4)cc3F)ccnc2cc1OCCCN1CCOCC1 is ____.
2.5

###

experiment: Tmax in Sprague-Dawley rat at 5 mg/kg, iv measured for 96 hrs by LC-MS analysis; format: ADME, organism-based; conditions: in vivo
quantity name: Tmax (min)
I only need the number, in min, no unit after it.

Fill in the blank: the reported Tmax of COc1cc2c(Oc3ccc(Nc4nn(C)cc4C(=O)NC4CCCCC4)cc3F)ccnc2cc1OCCCN1CCOCC1 is ____.
4.8

###

assay: Tmax in Sprague-Dawley rat at 25 mg/kg, po measured for 96 hrs by LC-MS analysis; format: ADME, organism-based; settings: in vivo
quantity name: Tmax (h)
I only need the number, in h, no unit after it.

Fill in the blank: the reported Tmax of COc1cc2c(Oc3ccc(Nc4nn(C)cc4C(=O)NC4CCCCC4)cc3F)ccnc2cc1OCCCN1CCOCC1 is ____.
3

###

molecular target: Ephrin type-B receptor 6 (Homo sapiens, UniProt O15197)
Sequence (O15197 whole entry): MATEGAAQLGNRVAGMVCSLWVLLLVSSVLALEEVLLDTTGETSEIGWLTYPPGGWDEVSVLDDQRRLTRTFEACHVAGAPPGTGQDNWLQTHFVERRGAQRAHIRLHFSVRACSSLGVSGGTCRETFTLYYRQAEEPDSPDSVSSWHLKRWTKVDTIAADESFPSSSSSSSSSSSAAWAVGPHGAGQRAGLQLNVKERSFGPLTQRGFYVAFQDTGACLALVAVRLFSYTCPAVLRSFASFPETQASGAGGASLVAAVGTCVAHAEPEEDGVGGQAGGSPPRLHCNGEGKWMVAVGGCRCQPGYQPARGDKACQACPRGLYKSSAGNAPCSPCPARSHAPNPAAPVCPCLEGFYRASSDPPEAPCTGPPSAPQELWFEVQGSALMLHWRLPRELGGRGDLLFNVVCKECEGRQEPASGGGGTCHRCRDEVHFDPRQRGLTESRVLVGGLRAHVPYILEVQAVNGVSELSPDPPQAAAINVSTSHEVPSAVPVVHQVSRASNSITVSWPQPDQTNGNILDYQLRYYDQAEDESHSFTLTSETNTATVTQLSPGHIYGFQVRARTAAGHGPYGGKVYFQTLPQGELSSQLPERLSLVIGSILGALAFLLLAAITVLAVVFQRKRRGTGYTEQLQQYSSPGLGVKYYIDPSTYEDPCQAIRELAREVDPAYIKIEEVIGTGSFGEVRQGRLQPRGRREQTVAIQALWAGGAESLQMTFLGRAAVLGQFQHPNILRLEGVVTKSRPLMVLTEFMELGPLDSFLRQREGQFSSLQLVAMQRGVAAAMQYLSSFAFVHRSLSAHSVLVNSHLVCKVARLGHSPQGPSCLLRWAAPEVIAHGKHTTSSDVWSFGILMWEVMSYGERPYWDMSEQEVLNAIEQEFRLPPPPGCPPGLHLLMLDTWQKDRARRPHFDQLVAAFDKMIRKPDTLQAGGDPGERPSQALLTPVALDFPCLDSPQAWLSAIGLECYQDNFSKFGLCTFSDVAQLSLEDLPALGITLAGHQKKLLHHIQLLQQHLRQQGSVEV
quantity name: Kd

Kd of COc1cc2c(Oc3ccc(Nc4nn(C)cc4C(=O)NC4CCCCC4)cc3F)ccnc2cc1OCCCN1CCOCC1 on Ephrin type-B receptor 6 (Homo sapiens, UniProt O15197)?
> 1000 nM

###

experiment: Half life in Sprague-Dawley rat at 5 mg/kg, iv measured for 96 hrs by LC-MS analysis; assay type: ADME, organism-based; conditions: in vivo
quantity name: half-life
# do not omit the unit; it follows the number

Fill in the blank: the reported half-life of COc1cc2c(Oc3ccc(Nc4nn(C)cc4C(=O)NC4CCCCC4)cc3F)ccnc2cc1OCCCN1CCOCC1 is ____.
3.31 h

###

experiment: Half life in Sprague-Dawley rat at 25 mg/kg, po measured for 96 hrs by LC-MS analysis; type: ADME, organism-based; conditions: in vivo
quantity name: half-life (h)
I only need the number, in h, no unit after it.

Fill in the blank: the reported half-life of COc1cc2c(Oc3ccc(Nc4nn(C)cc4C(=O)NC4CCCCC4)cc3F)ccnc2cc1OCCCN1CCOCC1 is ____.
4.22

###

target: Tyrosine-protein kinase receptor UFO (Homo sapiens); experiment: Inhibition of recombinant AXL (unknown origin) using poly (Glu,Tyr) 4:1 as substrate incubated for 60 mins in presence of ATP by ELISA
Sequence (P30530 whole entry): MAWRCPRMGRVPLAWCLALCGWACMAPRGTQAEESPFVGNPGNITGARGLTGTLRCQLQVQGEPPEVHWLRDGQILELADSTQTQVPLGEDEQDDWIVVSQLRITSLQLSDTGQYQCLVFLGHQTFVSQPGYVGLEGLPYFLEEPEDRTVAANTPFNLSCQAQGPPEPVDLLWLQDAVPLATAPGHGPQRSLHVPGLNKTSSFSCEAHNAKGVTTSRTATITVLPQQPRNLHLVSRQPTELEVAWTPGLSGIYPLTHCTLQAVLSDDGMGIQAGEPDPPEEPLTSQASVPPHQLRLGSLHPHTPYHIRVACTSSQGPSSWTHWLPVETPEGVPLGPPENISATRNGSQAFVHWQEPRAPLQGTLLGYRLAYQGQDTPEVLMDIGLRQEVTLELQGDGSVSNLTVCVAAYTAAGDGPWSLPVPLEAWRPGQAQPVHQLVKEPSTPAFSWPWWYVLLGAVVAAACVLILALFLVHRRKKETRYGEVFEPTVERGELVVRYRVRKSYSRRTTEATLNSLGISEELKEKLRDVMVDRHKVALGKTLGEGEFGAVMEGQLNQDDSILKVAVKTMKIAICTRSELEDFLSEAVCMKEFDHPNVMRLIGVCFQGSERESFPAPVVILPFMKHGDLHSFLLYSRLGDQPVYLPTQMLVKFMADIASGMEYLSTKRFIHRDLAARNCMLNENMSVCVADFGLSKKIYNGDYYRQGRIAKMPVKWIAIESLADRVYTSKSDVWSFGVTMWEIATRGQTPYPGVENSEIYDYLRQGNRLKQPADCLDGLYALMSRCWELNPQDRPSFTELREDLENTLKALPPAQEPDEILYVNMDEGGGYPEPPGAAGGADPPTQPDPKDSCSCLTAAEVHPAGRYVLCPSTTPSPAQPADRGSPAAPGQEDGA
quantity name: IC50 (nM)
I only need the number, in nM, no unit after it.

// known answers, use as guide
{"columns": ["compound", "quantity name", "measure unit", "endpoint value"],
 "data": [
  ["COc1cc2nccc(Oc3ccc(Nc4nn(C)cc4C(=O)NC4CCCCC4)cc3F)c2cc1OC", "IC50", "nM", 11.4],
  ["COc1cc2nccc(Oc3ccc(Nc4nn(C)cc4C(=O)Nc4ccccc4)cc3F)c2cc1OC", "IC50", "nM", 25.4],
  ["CCNC(=O)c1cn(C)nc1Nc1ccc(Oc2ccnc3cc(OC)c(OC)cc23)c(F)c1", "IC50", "nM", 238],
  ["COc1cc2nccc(Oc3ccc(Nc4nn(C)cc4C(=O)NC4C5CC6CC(C5)CC4C6)cc3F)c2cc1OC (centres undefined)", "IC50", "nM", 13.2],
  ["COc1cc2nccc(Oc3ccc(Nc4nn(C)cc4C(=O)NC4CCCCC4)cc3OC)c2cc1OC", "IC50", "nM", 40.4]
]}

Fill in the blank: the reported IC50 of COc1cc2nccc(Oc3ccc(Nc4nn(C)cc4C(=O)NC4CCCCC4)cc3C)c2cc1OC is ____.
40.4

Fill in the blank: the reported IC50 of COc1cc2c(Oc3ccc(Nc4nn(C)cc4C(=O)NC4CCCCC4)cc3F)ccnc2cc1OCCCN1CCN(C)CC1 is ____.
2.9

Fill in the blank: the reported IC50 of COc1cc2nccc(Oc3ccc(Nc4nn(C)cc4C(=O)NC4CCC(F)(F)CC4)cc3F)c2cc1OC is ____.
65.1

Fill in the blank: the reported IC50 of COc1cc2nccc(Oc3ccc(Nc4nn(C)cc4C(=O)Nc4ccc(F)cc4)cc3F)c2cc1OC is ____.
40.1

Fill in the blank: the reported IC50 of COc1cc2nccc(Oc3ccc(Nc4nn(C)cc4C(=O)NC4CC4)cc3F)c2cc1OC is ____.
586

Fill in the blank: the reported IC50 of COc1cc2c(Oc3ccc(Nc4nn(C)cc4C(=O)NC4CCCCC4)cc3F)ccnc2cc1OCCCN(C)C is ____.
3.2

Fill in the blank: the reported IC50 of COc1cc2c(Oc3ccc(Nc4nn(C)cc4C(=O)NC4CCCCC4)cc3F)ccnc2cc1OCCCN1CCOCC1 is ____.
1.6

Fill in the blank: the reported IC50 of COc1cc2nccc(Oc3ccc(Nc4nn(C)cc4C(=O)NC4CCCCCCC4)cc3F)c2cc1OC is ____.
12.5

Fill in the blank: the reported IC50 of COc1cc2nccc(Oc3ccc(Nc4nn(C)cc4C(=O)Nc4ccc(OC(F)F)cc4)cc3F)c2cc1OC is ____.
64.4

Fill in the blank: the reported IC50 of COc1cc2nccc(Oc3ccc(Nc4nn(C)cc4C(=O)NC(C)(C)C)cc3F)c2cc1OC is ____.
142

Fill in the blank: the reported IC50 of COc1cc2nccc(Oc3ccc(Nc4nn(C)cc4C(=O)NC4CCOCC4)cc3F)c2cc1OC is ____.
120

The origin of these recorded values is ChEMBL document CHEMBL5096241.
